The measurements presented in this section are drawn from ChEMBL document CHEMBL3745661.

Item-by-item account of logP
# protocol: Lipophilicity, log P of the compound
# Assay type: physicochemical
# experimental_parameters: octanol/water

molecule: c1ccc2c(c1)Nc1nc3ccccc3nc1O2
logP: 3.46
--
molecule: O=C1c2ccccc2S(=O)(=O)N1C[C@@H]1CC(c2ccccc2Cl)=NO1
logP: 2.71
--
molecule: O=C(CSc1nc2ccccc2o1)N1c2ccccc2Sc2ccccc21
logP: 6.09
--
molecule: O=c1[nH]c2ccc(S(=O)(=O)Nc3cccc(F)c3)cc2o1
logP: 2.06
--
molecule: c1ccc2c(c1)c1ccccc1c1nn3nnnc3nc21
logP: 3.16
--
molecule: Cn1c(=O)oc2cc(S(=O)(=O)Nc3ccccc3NC(=O)c3ccc(C(C)(C)C)cc3)ccc21
logP: 4.54
--
molecule: O=C(Nc1ccccc1)Nc1ccc(Oc2cccc(C(F)(F)F)c2)nc1
logP: 5.04
--
molecule: COC(=O)Nc1nc2cc(-c3nnc(O)c4ccccc34)ccc2[nH]1
logP: 2.53
--
molecule: N#Cc1ccc(S(=O)(=O)N2CCNC(=O)[C@H]2CC(=O)Nc2cc(Cl)ccc2Cl)cc1
logP: 3.54
--
molecule: CC(C)COc1ccc(NS(=O)(=O)c2ccc3c(c2)oc(=O)n3C)cc1Cl
logP: 3.77
--
molecule: C[C@@H](CS(=O)(=O)Nc1ccc2c(c1)oc(=O)n2C)c1ccccc1
logP: 3.06
--
molecule: Cn1c(=O)oc2cc(S(=O)(=O)Nc3cccc4cccnc34)ccc21
logP: 1.94
--
molecule: O=S(=O)(c1ccccc1)N1CCN(C2c3ccccc3-c3ccccc32)CC1
logP: 4.26
